# Assay target: biot-MPV-F D280N (metapneumovirus (MPV))
# Test details: BLI (Octet), biotinylated F on SA sensors, mAb 5 µg/ml
Metric name: Kd (nM)
Dear colleague, please return just the value in nM, with no unit written.

Please indicate Kd recorded for MPK104-rIgG1-LS (antibody, V domains shown) VH: EVQLVESGGGLVKPGGSLRLSCAASGFTIDGYGMNWVRQAPGKGLEWVSSISASSNYIYYADSMKGRFTISRDNGKNSLYLQMHSLRVEDTGVYYCARAPLEPPYFDLWGRGTLVTVSS VL: QSVLTQPPSVSGAPGQRVTISCSGGSSNIGAGYDVHWYQQVPGKGPKVLIYGNNNRPSGVPDRFSGSNFGASASLAITGLQADDEADYFCQSYDRRLGGPVFGGGTKLTVL
0.391
